assay_system: cathepsin K (Homo sapiens)
Construct: the active enzyme was obtained as the enzyme fraction by using detergent containing lysis buffer; made in house; host or cells: HEK293T (GenHunter Corporation), transient expression; detergent lysate used as enzyme fraction
method_description: Cathepsin K inhibitory activity (fluorescent substrate Z-Leu-Arg-MCA)
Type: biochemical
stated_conditions: enzyme expressed in HEK293T; 15 min preincubation, 30 min reaction at room temperature, pH 5.5; read-out: Activity Intensity (cathepsin K inhibitory activity, pIC50 class) (converted)

- smiles_entry: "CC[C@@H](CNc1ccc(OC)cc1OC)NC(=O)C1(N[C@@H](c2ccccc2)C(F)(F)F)CCCC1"
  IC50: "31.6 to 10000 nM"
- smiles_entry: "CC[C@@H](CNc1ccc(OCC(=O)N2CCOCC2)cc1OC)NC(=O)[C@H](CC(C)(C)F)N[C@@H](c1ccccc1)C(F)(F)F"
  IC50: "≤ 3.16 nM"
- smiles_entry: "CC[C@@H](CNc1ccc(OCCS(C)(=O)=O)cc1OC)NC(=O)[C@H](CC(C)C)N[C@@H](c1ccc(OC)nc1)C(F)(F)F"
  IC50: "3.16 to 31.6 nM"

* * *

assay_system: cathepsin K (Homo sapiens)
Construct: the active enzyme was obtained as the enzyme fraction by using detergent containing lysis buffer; made in house; host or cells: HEK293T (GenHunter Corporation), transient expression; detergent lysate used as enzyme fraction
method_description: Cathepsin K inhibitory activity (fluorescent substrate Z-Leu-Arg-MCA)
Assay type: biochemical
stated_conditions: enzyme expressed in HEK293T; 15 min preincubation, 30 min reaction at room temperature, pH 5.5; read-out: Activity Intensity (cathepsin K inhibitory activity, pIC50 class) (converted)
Items are presented alongside their recorded IC50.
parameter_measured: IC50

- smiles_entry: "CCOC(=O)c1ccnn1-c1ccc(NC[C@H](CC)NC(=O)[C@H](CC(C)C)N[C@@H](c2ccccc2)C(F)(F)F)cc1"
  assay_system: "cathepsin K (Homo sapiens)"
  result: "0.0316 to 10 µM"
- smiles_entry: "CC[C@@H](CNc1ccc(N2CCCCC2)cc1)NC(=O)[C@H](CC(C)(C)F)N[C@@H](c1ccc(-c2ccc(S(C)(=O)=O)cc2)cc1)C(F)(F)F"
  assay_system: "cathepsin K (Homo sapiens)"
  result: "≤ 0.00316 µM"
- smiles_entry: "COc1ccc(NC[C@H](CC(C)C)NC(=O)[C@H](Cc2ccccc2)N[C@@H](c2ccccc2)C(F)(F)F)c(OC)c1"
  assay_system: "cathepsin K (Homo sapiens)"
  result: "0.0316 to 10 µM"
- smiles_entry: "CC(C)(F)C[C@H](N[C@@H](c1ccccc1)C(F)(F)F)C(=O)N[C@@H](CCCC(=O)O)CNc1ccc(N2CCOCC2)cc1"
  assay_system: "cathepsin K (Homo sapiens)"
  result: "≤ 0.00316 µM"
- smiles_entry: "CC(C)C[C@H](N[C@@H](c1ccccc1)C(F)(F)F)C(=O)N[C@@H](CCCN)CNc1ccc(N2CCOCC2)cc1"
  assay_system: "cathepsin K (Homo sapiens)"
  result: "0.00316 to 0.0316 µM"
- smiles_entry: "CC[C@@H](CNc1ccc(N2CCOCC2)cc1)NC(=O)[C@H](Cc1ccccc1)N[C@@H](c1ccccc1)C(F)(F)F"
  assay_system: "cathepsin K (Homo sapiens)"
  result: "0.0316 to 10 µM"

* * *

assay_system: cathepsin K (Homo sapiens, UniProt P43235)
Construct: the active enzyme was obtained as the enzyme fraction by using detergent containing lysis buffer; made in house; host or cells: HEK293T (GenHunter Corporation), transient expression; detergent lysate used as enzyme fraction
Sequence (P43235 115-329): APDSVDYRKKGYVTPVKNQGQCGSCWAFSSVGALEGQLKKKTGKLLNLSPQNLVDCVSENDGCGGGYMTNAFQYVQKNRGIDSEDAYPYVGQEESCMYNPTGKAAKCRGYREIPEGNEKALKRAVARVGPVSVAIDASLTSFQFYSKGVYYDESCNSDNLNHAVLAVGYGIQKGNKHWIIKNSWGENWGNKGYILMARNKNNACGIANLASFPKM
method_description: Cathepsin K inhibitory activity (fluorescent substrate Z-Leu-Arg-MCA)
Format: biochemical
stated_conditions: enzyme expressed in HEK293T; 15 min preincubation, 30 min reaction at room temperature, pH 5.5; read-out: Activity Intensity (cathepsin K inhibitory activity, pIC50 class) (converted)

- molecule: "CC[C@@H](CNc1ccc(N(C)C)cc1)NC(=O)[C@H](CC(C)(C)F)N[C@@H](c1ccc(-c2ccc(S(C)(=O)=O)cc2)cc1)C(F)(F)F [Compound 12]"
  IC50: "≤ 3.16 nM"
- molecule: "CC[C@@H](CNc1ccc(N2CCO[C@@H](C(=O)OC)C2)cc1)NC(=O)[C@H](CC(C)C)N[C@@H](c1ccccc1)C(F)(F)F [Compound 56]"
  IC50: "≤ 3.16 nM"
- molecule: "CC[C@@H](CNc1ccc(OCC(=O)N2CCCC2)cc1OC)NC(=O)[C@H](CC(C)(C)F)N[C@@H](c1ccccc1)C(F)(F)F [Compound 135]"
  IC50: "≤ 3.16 nM"

* * *

Measured IC50 by item
assay_system: cathepsin K (Homo sapiens)
Construct: the active enzyme was obtained as the enzyme fraction by using detergent containing lysis buffer; made in house; host or cells: HEK293T (GenHunter Corporation), transient expression; detergent lysate used as enzyme fraction
method_description: Cathepsin K inhibitory activity (fluorescent substrate Z-Leu-Arg-MCA)
Format: biochemical
stated_conditions: enzyme expressed in HEK293T; 15 min preincubation, 30 min reaction at room temperature, pH 5.5; read-out: Activity Intensity (cathepsin K inhibitory activity, pIC50 class) (converted)

- compound: "CC[C@@H](CNc1ccc(N2C[C@@H](C)O[C@@H](C)C2)cc1)NC(=O)[C@H](CC(C)C)N[C@@H](c1ccc(OC)nc1)C(F)(F)F"
  IC50: "≤ 3.16 nM"
- compound: "CC[C@@H](CNc1ccc(N2CCCC2=O)cc1)NC(=O)[C@H](CC(C)C)N[C@@H](c1ccc(OC)nc1)C(F)(F)F"
  IC50: "3.16 to 31.6 nM"
- compound: "CC[C@@H](CNc1ccc(N(C)C)cc1)NC(=O)C1(NC(c2ccccc2)C(F)(F)F)CCCCC1 (stereo partly shown)"
  IC50: "31.6 to 10000 nM"
- compound: "CC[C@@H](CNc1ccc(OC)cc1OC)NC(=O)[C@H](CC(C)C)N[C@@H](c1ccc(S(C)(=O)=O)cc1)C(F)(F)F"
  IC50: "≤ 3.16 nM"
- compound: "CC(C)C[C@H](N[C@@H](c1ccccc1)C(F)(F)F)C(=O)N[C@@H](CC#N)CNc1ccc(N2CCOCC2)cc1"
  IC50: "3.16 to 31.6 nM"
- compound: "CC[C@@H](CNc1ccc(OCC(=O)N(C)OC)cc1OC)NC(=O)[C@H](CC(C)C)N[C@@H](c1ccccc1)C(F)(F)F"
  IC50: "≤ 3.16 nM"
- compound: "CC[C@@H](CNc1ccc(N2CCOCC2)cc1)NC(=O)[C@H](CC(C)C)N[C@@H](c1ccc(=O)n(C)c1)C(F)(F)F"
  IC50: "≤ 3.16 nM"
- compound: "CC[C@@H](CNc1ccc(OCC(=O)OCc2ccccc2)cc1OC)NC(=O)[C@H](CC(C)(C)F)N[C@@H](c1ccc(Br)cc1)C(F)(F)F"
  IC50: "≤ 3.16 nM"
- compound: "CC(C)C[C@H](N[C@@H](c1ccccc1)C(F)(F)F)C(=O)N[C@@H](CCCO)CNc1ccc(N2CCOCC2)cc1"
  IC50: "31.6 to 10000 nM"
- compound: "COc1ccc(NC[C@H](CCSC)NC(=O)[C@H](CC(C)C)N[C@@H](c2ccccc2)C(F)(F)F)c(OC)c1"
  IC50: "3.16 to 31.6 nM"
- compound: "CC(C)C[C@H](N[C@@H](c1ccccc1)C(F)(F)F)C(=O)N[C@@H](CCC(=O)OCc1ccccc1)CNc1ccc(N2CCOCC2)cc1"
  IC50: "≤ 3.16 nM"
- compound: "CC[C@@H](CNc1ccc(N2CCOCC2)cc1)NC(=O)[C@H](CC(C)C)N[C@@H](c1cccnc1)C(F)(F)F"
  IC50: "≤ 3.16 nM"
- compound: "COc1ccc(NC[C@H](C)NC(=O)[C@H](CC(C)C)N[C@@H](c2ccc(=O)[nH]c2)C(F)(F)F)c(OC)c1"
  IC50: "3.16 to 31.6 nM"

* * *

Each entry below carries its reported IC50.
assay_system: cathepsin K (Homo sapiens)
Construct: the active enzyme was obtained as the enzyme fraction by using detergent containing lysis buffer; made in house; host or cells: HEK293T (GenHunter Corporation), transient expression; detergent lysate used as enzyme fraction
method_description: Cathepsin K inhibitory activity (fluorescent substrate Z-Leu-Arg-MCA)
Type: biochemical
stated_conditions: enzyme expressed in HEK293T; 15 min preincubation, 30 min reaction at room temperature, pH 5.5; read-out: Activity Intensity (cathepsin K inhibitory activity, pIC50 class) (converted)
parameter_measured: IC50

- smiles_entry: "CC(C)C[C@H](N[C@@H](c1ccccc1)C(F)(F)F)C(=O)N[C@@H](CCNC(=O)OCc1ccccc1)CNc1ccc(N2CCOCC2)cc1"
  result: "≤ 3.16 nM"
- smiles_entry: "CC[C@@H](CNc1ccc(OC)cc1OC)NC(=O)[C@@H](N[C@@H](c1ccccc1)C(F)(F)F)C1CCCCC1"
  result: "31.6 to 10000 nM"
- smiles_entry: "CCOC(=O)C1CCN(c2ccc(NC[C@H](CC)NC(=O)[C@H](CC(C)C)N[C@@H](c3ccc(OC)nc3)C(F)(F)F)cc2)CC1"
  result: "≤ 3.16 nM"
- smiles_entry: "CC[C@@H](CNc1ccc(N2CCOCC2)cc1)NC(=O)[C@H](CC(C)C)N[C@@H](c1ccc(S(C)(=O)=O)cc1)C(F)(F)F"
  result: "≤ 3.16 nM"
- smiles_entry: "CC[C@@H](CNc1ccc(OCCS(C)(=O)=O)cc1OC)NC(=O)[C@H](CC(C)C)N[C@@H](c1ccc(=O)[nH]c1)C(F)(F)F"
  result: "≤ 3.16 nM"
- smiles_entry: "CC[C@@H](CNc1ccc(-n2ccnc2)cc1)NC(=O)[C@H](CC(C)C)N[C@@H](c1ccc(OC)nc1)C(F)(F)F"
  result: "31.6 to 10000 nM"
